- Tested Target: Alkaline phosphatase, tissue-nonspecific isozyme (Homo sapiens)
- Experiment Summary: human TNAP enzyme activators, primary screen, biochemical, luminescent, intermediate phosphate acceptor level (AID 813)
- Condition Info: purified TNAP, CDP-star luminescence, 100 mM DEA, 30 min; at 20 µM; active compounds read high; scale: 0 levamisole-inhibited, 1 vehicle-only enzyme
In all, about 64,000 compounds went through this assay and fewer than 10 were called active. Only a sample is shown.
Parameter: activation factor

Data request: Item "O=C(Nc1ccon1)c1sc2ccccc2c1Cl" with Alkaline phosphatase, tissue-nonspecific isozyme (Homo sapiens) - activation factor?
Data returned: 1 (inactive)

Data request: Then COc1cc(C(O)c2nc3ccccc3n2C)cc(OC)c1OC (stereo not drawn) ?
Data returned: 0.9 (inactive)

Data request: Same question, "Cc1ccc(C)c(N2CCN(C(=O)CCCCn3c(=O)[nH]c4ccccc4c3=O)CC2)c1" this time
Data returned: 0.8 (inactive)

Data request: Another: O=C(C1CCCO1)N(Cc1ccccc1)c1ccccc1 (stereo not drawn)
Data returned: 0.9 (inactive)

Data request: Param item: "O=C(CSc1nnc(-c2cccs2)n1Cc1ccco1)c1ccc2c(c1)OCO2"
Data returned: 0.9 (inactive)

Data request: Next up: "C=CCn1c(SCC(=O)NC23CC4CC(CC(C4)C2)C3)nc(O)cc1=O"
Data returned: 0.9 (inactive)

Data request: // same read-out, input: Cc1cc(N2C(=O)C(=O)/C(=C(/O)c3ccc(Cl)cc3)C2c2cccc(Br)c2)no1 (stereo not drawn)
Data returned: 0.8 (inactive)

Data request: Follow-up item: COc1ccc(C2C3=C(OC(C)=O)c4ccccc4C3=Nc3c2c(=O)n(C)c(=O)n3C)cc1 (stereo not drawn)
Data returned: 0.8 (inactive)

Data request: # repeat for "Cn1c(=NC(=O)c2ccco2)sc2cccc(F)c21"
Data returned: 0.9 (inactive)

Data request: What do you get for "CC/C(=N\O)C(C)(C)/[N+]([O-])=C/c1ccc(Br)cc1" ?
Data returned: 0.9 (inactive)

Data request: Similarly, "Cc1cccc(OCc2nnc(SCC(=O)N3CCN(C(=O)c4ccco4)CC3)n2C)c1C" ?
Data returned: 0.9 (inactive)

Data request: Then "N=c1c2c3c(sc2ncn1CCCN1CCOCC1)CCCCC3" ?
Data returned: 0.9 (inactive)

Data request: Same question, "CCOC(=O)CSc1nc2c(c(=O)n(Cc3ccccc3Cl)c(=O)n2C)n1C" this time
Data returned: 0.9 (inactive)

Data request: Repeat for the following compound: "O=C(CCCOc1ccccc1)Nc1cccc(C(=O)O)c1"
Data returned: 1 (inactive)

Data request: Another compound: COc1ccc(CCn2nnnc2C(c2ccccc2)N2CCN(C)CC2)cc1OC (stereo not drawn)
Data returned: 1 (inactive)

Data request: Check O=C(O)CC(c1ccccc1)n1cnnn1 (stereo not drawn) too.
Data returned: 1 (inactive)

Data request: What do you have for "Cc1cc(=O)n2c3c(cccc13)CCC2" ?
Data returned: 0.9 (inactive)

Data request: Moving on to "CC(C)c1ccc(NC(=O)NC2CCCCC2)cc1"
Data returned: 0.9 (inactive)

Data request: Another: CCN1CCCC1CNC(=O)Cn1cnc2ccc(S(=O)(=O)N3CCC(C)CC3)cc2c1=O (stereo not drawn)
Data returned: 0.9 (inactive)

Data request: Subsequent entry: COc1ccc(-n2c(SCC(=O)Nc3ccc4c(c3)OCO4)nnc2C(C)N2CCCCC2)cc1 (stereo not drawn)
Data returned: 1 (inactive)

Data request: Same question for "Nc1nnc(C2CCCC2)s1" please.
Data returned: 0.9 (inactive)

Data request: And the next one, O=C1CC(Cc2ccccc2)C(=O)N1c1ccc(Cl)cn1 (stereo not drawn) ?
Data returned: 1 (inactive)

Data request: Now the same for "CCn1c(=N)n(CC(=O)c2cccc(OC)c2)c2ccccc21"
Data returned: 1 (inactive)

// provenance: PubChem BioAssay AID813
